- target of assay: DMPK (human) (UniProt Q09013)
- Sequence (Q09013 whole entry, looked up): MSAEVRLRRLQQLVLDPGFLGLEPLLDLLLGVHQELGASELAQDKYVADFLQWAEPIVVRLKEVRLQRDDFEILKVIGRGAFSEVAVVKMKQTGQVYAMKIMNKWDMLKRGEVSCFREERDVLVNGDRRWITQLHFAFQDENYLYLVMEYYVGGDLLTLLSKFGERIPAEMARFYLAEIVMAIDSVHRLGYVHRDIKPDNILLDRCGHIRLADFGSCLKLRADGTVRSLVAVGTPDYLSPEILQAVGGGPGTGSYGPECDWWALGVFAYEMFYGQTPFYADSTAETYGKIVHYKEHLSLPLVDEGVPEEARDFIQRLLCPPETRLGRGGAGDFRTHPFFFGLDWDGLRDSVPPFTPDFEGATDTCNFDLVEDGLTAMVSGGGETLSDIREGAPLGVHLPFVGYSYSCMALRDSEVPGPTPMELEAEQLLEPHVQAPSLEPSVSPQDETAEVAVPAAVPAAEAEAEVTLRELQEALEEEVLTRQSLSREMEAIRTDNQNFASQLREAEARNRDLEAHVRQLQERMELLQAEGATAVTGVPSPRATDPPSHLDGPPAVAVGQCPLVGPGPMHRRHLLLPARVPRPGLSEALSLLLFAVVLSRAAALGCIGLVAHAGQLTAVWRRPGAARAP
- method: radiometric filter-binding kinase assay, Kinase HotSpot
- condition info: compound 0.5 µM; ATP 10 µM
measured property: residual activity (%)
Just the number in %, nothing appended.

Query: Consider the molecule CC(C)c1nn(-c2c(Cl)cccc2Cl)c2nc(Cc3ccc(OCCO)cc3)nc(O)c12 and give its recorded residual activity.
Result: 99.3

Query: Consider the molecule CCn1cnc2c(Nc3cccc(Cl)c3)nc(N[C@@H]3CCCC[C@@H]3N)nc21 and give its recorded residual activity.
Result: 99.7

Query: Consider the molecule O=C(O)/C=C/c1cc(Br)c(Br)c(Br)c1Br and give its recorded residual activity.
Result: 103

Query: Consider the molecule O=C1Nc2ccccc2/C1=C1\Nc2ccccc2\C1=N/O and give its recorded residual activity.
Result: 101

Query: Consider the molecule COc1ccc(OC)c2c(=S)c3ccccc3[nH]c12 and give its recorded residual activity.
Result: 99.6

Query: Consider the molecule Nc1nccc(-c2c(-c3ccc(F)cc3)ncn2C2CCNCC2)n1 and give its recorded residual activity.
Result: 99.3

Query: Consider the molecule O=C(CCCc1ccc(-c2ccccc2F)cc1)Nc1ccc(O)cc1 and give its recorded residual activity.
Result: 130

Query: Consider the molecule O=C(Nc1cccc(Nc2cc(Nc3cccc(C(F)(F)F)c3)ncn2)c1)C1CC1 and give its recorded residual activity.
Result: 99.7

Query: Consider the molecule COc1cc2ncc(-c3ccccc3)nc2cc1OC and give its recorded residual activity.
Result: 103

Query: Consider the molecule Cc1nc2cc3nc(-c4cccs4)cnc3cc2n1C and give its recorded residual activity.
Result: 100

Query: Consider the molecule CC(C)[C@H](CO)Nc1nc(Nc2cc(N)cc(Cl)c2)c2ncn(C(C)C)c2n1 and give its recorded residual activity.
Result: 99.7

Query: Consider the molecule O=C1NC(=O)C(c2cn(CCCO)c3ncccc23)=C1c1cnccn1 and give its recorded residual activity.
Result: 99.6

Query: Consider the molecule Cn1sc(=O)n(Cc2ccccc2)c1=O and give its recorded residual activity.
Result: 100

Query: Consider the molecule O=C1Cc2c([nH]c3ccc(Br)cc23)-c2ccccc2N1 and give its recorded residual activity.
Result: 110

Query: Consider the molecule COc1ccc(CNC(=O)Nc2ncc([N+](=O)[O-])s2)cc1 and give its recorded residual activity.
Result: 101

Query: Consider the molecule Oc1ccc(Nc2nc(-c3ccc(Cl)cc3)cs2)cc1 and give its recorded residual activity.
Result: 102

Query: Consider the molecule O=C1Nc2ccccc2/C1=C1/Nc2ccccc2/C1=N\OCCC(O)CO (stereo not drawn) and give its recorded residual activity.
Result: 99.5

Query: Consider the molecule CN([C@@H](Cc1ccc(OS(=O)(=O)c2cccc3cnccc23)cc1)C(=O)N1CCN(c2ccccc2)CC1)S(=O)(=O)c1cccc2cnccc12 and give its recorded residual activity.
Result: 108

Query: Consider the molecule Cn1nc2c3c(cccc31)C(=O)c1ccccc1-2 and give its recorded residual activity.
Result: 107

Query: Consider the molecule CC(=O)O/N=C1\C(=C2\C(=O)Nc3cc(Br)ccc32)Nc2ccccc21 and give its recorded residual activity.
Result: 95.4

Query: Consider the molecule Nc1nnc2[nH]c3ccccc3nc1-2 and give its recorded residual activity.
Result: 98.4

Query: Consider the molecule O=C1NC(=O)/C(=C\c2ccc3nccnc3c2)S1 and give its recorded residual activity.
Result: 112

Query: Consider the molecule CN(C)C[C@H]1CCn2c(c(C3=C(c4cn(C)c5ccccc45)C(=O)NC3=O)c3ccccc32)C1 and give its recorded residual activity.
Result: 106
